Test target: human CRF1 receptor (Homo sapiens, UniProt P34998)
Construct: expressed in transfected cells; F-12 medium fits
Sequence (P34998 24-415): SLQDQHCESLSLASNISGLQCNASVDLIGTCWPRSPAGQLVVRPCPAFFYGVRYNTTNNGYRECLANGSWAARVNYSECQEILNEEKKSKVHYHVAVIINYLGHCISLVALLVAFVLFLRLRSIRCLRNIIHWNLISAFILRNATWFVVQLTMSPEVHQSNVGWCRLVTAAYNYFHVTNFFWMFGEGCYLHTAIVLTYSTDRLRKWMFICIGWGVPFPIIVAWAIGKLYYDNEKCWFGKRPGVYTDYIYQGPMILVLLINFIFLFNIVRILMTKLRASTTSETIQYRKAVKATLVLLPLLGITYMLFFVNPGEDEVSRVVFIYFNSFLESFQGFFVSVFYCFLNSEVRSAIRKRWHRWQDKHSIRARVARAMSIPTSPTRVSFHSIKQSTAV
Procedure details: Receptor antagonistic activity (cyclic AMP assay)
Type: cell-based
Experimental context: cells expressing human CRF1 receptor; human/rat CRF-stimulated intracellular cyclic AMP; read-out: antagonist activity on CRF receptor (IC50)
pIC50: −log10 of the molar value.

{"columns": ["Molecule", "pIC50"],
 "data": [
  ["CCC(CC)Nc1c2c(nc3c(-c4ccc(OC)cc4Cl)c(C)nn13)CCC2 [compound (1), methanesulfonate]", "> 6.00"]
]}

Measured values drawn from patent US7947697B1 for this set.
